- experiment-description: Plasma protein binding, human
- Format: in vitro ADME
- conditions: read-out: free fraction
readout-type: fraction unbound at 1 μM

1) O=C1CC[C@H](N2Cc3cc(N4CCN(CC5CCN(c6ccc([C@@H]7c8ccc(O)cc8CC[C@@H]7c7ccccc7)cc6)CC5)CC4)ccc3C2=O)C(=O)N1 0.124

###

- experiment-description: Tissue distribution in rat
- Format: in vivo
- conditions: brain, 100 mg/kg/day PO 3 days, read-out: tissue plasma ratio, brain
readout-type: Kp at 3 days

1) O=C1CC[C@H](N2Cc3cc(N4CCN(CC5CCN(c6ccc([C@@H]7c8ccc(O)cc8CC[C@@H]7c7ccccc7)cc6)CC5)CC4)ccc3C2=O)C(=O)N1 ≤ 0.1

This collection of values is drawn from patent US20260069588A1.
